test: Viability qHTS for spleen associated tyrosine kinase inhibitor (SYKi) naive MV4-11 cells (AID 1963823); conditions: MV4-11 AML viability, CellTiter-Glo luminescence, 72 h; series mostly up to 45 µM; note: nearly all actives have a fitted effect of over 40% in size; note: potency is the fitted concentration of half-maximal effect
Records with an inconclusive call do not appear. Activity calls are given as the source filed them. Calls come from the whole dose curve; as a rule, active = well fitted cell-killing curve with a large enough effect; inconclusive = small, poorly fitted or top-dose-only effect, or effect the other way; inactive = no such curve, though single readings can be large or run the other way.
Measurement name: Potency

In the examples that follow, each entry is paired with its recorded Potency.
> print(dat)
                              sample.smiles            result
1        Cc1ccc([N+](=O)[O-])[c]2c1[O][Hg]2  94.4 nM (active)
2  CN1CN(c2ccccc2)C2(CCN(CCCC(=O)c3ccc(F)cc3)CC2)C1=O          inactive
3  C=C(C)[C@@]12O[C@@H]1[C@@]1(C)C(=C[C@H]2O)CC[C@@H](O)[C@@H]1C          inactive
4          CCOP(=S)(OCC)O/N=C(\C#N)c1ccccc1          inactive
5  C=CCN1CC[C@]23c4c5ccc(O)c4O[C@H]2C(=O)CC[C@@]3(O)[C@H]1C5          inactive

Inquiry: Quick one: Potency of CCCCCCCCCC(=O)O[C@H]1CC[C@H]2[C@@H]3CCC4=CC(=O)CC[C@@H]4[C@H]3CC[C@]12C ?
Reply text: inactive

Inquiry: Repeat with CC(C)(C)[C@]1(O)C[C@@H]2OC(=O)C[C@@]23C(=O)O[C@@H]2OC(=O)[C@@H](O)[C@]213
Reply text: inactive

Inquiry: Repeat with CCO[C@H]1O[C@@H]2OC3(C)CC[C@H]4[C@H](C)CC[C@@H]([C@H]1C)[C@@]24OO3
Reply text: 4220 nM (active)

Inquiry: Repeat with C=C(C)C(=O)O[C@H]1[C@@H]2[C@H](C)C(=O)O[C@@H]2C[C@@H](C)[C@@H]2C=CC(=O)[C@]21C
Reply text: 1430 nM (active)

###

Kindly state activity (max response) for each of the entries shown.
assay: Cellular viability qHTS for adrenocortical cancer (ACC) cell line SW-13 (AID 1963989); conditions: SW-13 ACC cells viability, CellTiter-Glo, 48 h; stronger effect = lower value;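 note: cells grown in serum-free medium with ITS supplement; % is set by controls: 0 for no effect and ±100 for the full control effect; nearly all actives have a fitted effect of over 65% in size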
Inconclusive results are not listed.
Just the number please, in %, no unit attached.

Inquiry: Quick one: activity (max response) of C[C@H]1CNCCc2ccc(Cl)cc21 ?
Reply text: -1.47

Inquiry: Repeat with CCOC(=O)c1ncn2c1CN(C)C(=O)c1c(I)cccc1-2
Reply text: -2.47

Inquiry: Repeat with CC(Cc1ccc2c(c1)OCO2)NO (stereo unspecified)
Reply text: -5.75

Inquiry: Repeat with COc1cc(CC(C)N)cc2c1OCO2 (stereo unspecified)
Reply text: -21.8

Inquiry: Repeat with NCC(O)c1ccc(O)cc1 (stereo unspecified)
Reply text: 9.24

Inquiry: Repeat with CC(=O)[C@H]1CC[C@H]2[C@@H]3CC[C@H]4C[C@](C)(O)CC[C@]4(C)[C@H]3CC[C@]12C
Reply text: 7.79

Inquiry: Repeat with CN(C)CCc1c[nH]c2cccc(O)c12
Reply text: 3.4

Inquiry: Repeat with CC(C)[C@H]1C(=O)N[C@H](CO)Cc2c[nH]c3cccc(c23)N1C
Reply text: -2.75

Inquiry: Repeat with CCC1(CC)C(=O)C=CNC1=O
Reply text: 0.834

Inquiry: Repeat with O=c1[nH]c2cc(Cl)ccc2n1C1CCNCC1
Reply text: 8.8

Inquiry: Repeat with Clc1cccc(SC2CCNCC2)n1
Reply text: 3.75

Inquiry: Repeat with CC(C)NCC(O)c1ccc([N+](=O)[O-])cc1 (stereo unspecified)
Reply text: -6.95

Inquiry: Repeat with CC(C)(O)C(=O)Nc1ccc([N+](=O)[O-])c(C(F)(F)F)c1
Reply text: -7.23

Inquiry: Repeat with COCCOCCO
Reply text: -1.21

Inquiry: Repeat with NP(N)(=O)NC(=O)c1ccc(F)cc1
Reply text: 6.62

Inquiry: Repeat with CN1CCC(O)(c2ccc(F)cc2)C(C(=O)c2ccc(F)cc2)C1 (stereo unspecified)
Reply text: 0.424

Inquiry: Repeat with Cc1ncc(CNC(=O)N(CCCl)N=O)c(N)n1
Reply text: 2.91

Inquiry: Repeat with CCC1(c2cccc(O)c2)CCCCN(C)C1 (stereo unspecified)
Reply text: -10.4

Inquiry: Repeat with O=C(O)C(Cl)Cl
Reply text: 11.1

Inquiry: Repeat with O=S(=O)(O)C(F)(F)C(F)(F)C(F)(F)C(F)(F)F
Reply text: 12.3

Inquiry: Repeat with CC(=O)c1c(O)c(C)c(O)c(Cc2c(O)c3c(c(C(=O)/C=C/c4ccccc4)c2O)OC(C)(C)C=C3)c1O
Reply text: -2.92

Inquiry: Repeat with Nc1c(Cl)c(Cl)c(Cl)c(Cl)c1Cl
Reply text: -9.89

Inquiry: Repeat with COP(=S)(OC)Oc1cc(Cl)c(Cl)cc1Cl
Reply text: 7.21

Inquiry: Repeat with O=C1CN2CCOC2(c2ccccc2Cl)c2cc(Cl)ccc2N1 (stereo unspecified)
Reply text: -4.14

Inquiry: Repeat with CCN[C@H](C)Cc1cccc(C(F)(F)F)c1
Reply text: -4.65

Inquiry: Repeat with C[N+]1(CCC(C(N)=O)(c2ccccc2)c2ccccc2)CCCCC1
Reply text: 8.34

###

assay: Viability qHTS for spleen associated tyrosine kinase inhibitor (SYKi) drug resistant MV4-11 cells (AID 1963824); conditions: SYKi-resistant MV4-11 viability, CellTiter-Glo, 72 h; series mostly up to 45 µM; note: nearly all actives have a fitted effect of over 35% in size
Inconclusive results are not listed. Activity calls are given as the source filed them. Calls follow the shape of the dose curve; as a rule, active = well fitted cell-killing curve with a large enough effect; inconclusive = small, poorly fitted or top-dose-only effect, or effect the other way; inactive = no such curve, though single readings can be large or run the other way.
In this exercise, the only acceptable responses are Y (active), N (inactive)

Inquiry: Which outcome was entered for the compound COP(=S)(OC)Oc1ccc(SC)c(C)c1 in this test?
Reply text: N

Inquiry: Repeat with CCCCCCC(C)(C)c1cc(O)c2c(c1)OC(C)(C)C1CC=C(CO)C[C@H]21 (stereo not given in full)
Reply text: Y

Inquiry: Repeat with COc1ccc(CC2C(=O)NC(C)C(=O)N(C)C3Cc4ccc(cc4)Oc4cc(ccc4OC4OC(CO)C(O)C(O)C4O)CC(C(=O)NC(C)C(=O)NC(CCC(=O)O)C(=O)N2C)N(C)C3=O)cc1 (stereo not given)
Reply text: Y

Inquiry: Repeat with C[C@@H](CN1CCC2(CC1)C(=O)NCN2c1cccc(F)c1)NC(=O)c1ccc(Br)cc1
Reply text: Y

Inquiry: Repeat with O=C(Nc1ccncc1)C(=O)c1cn(Cc2ccc(Cl)cc2)c2ccccc12
Reply text: Y

Inquiry: Repeat with CCS(=O)(=O)C(C)(C)S(=O)(=O)CC
Reply text: N

Inquiry: Repeat with CC(C)N(CCNC(=O)CN1CCCC1=O)C(C)C
Reply text: N

Inquiry: Repeat with O=c1cccc2n1CC1CNC[C@H]2C1
Reply text: N

Inquiry: Repeat with Cc1[nH]ncc1-c1cc2nc([C@@H]3CC4CCN3CC4)[nH]c(=O)c2s1
Reply text: Y

Inquiry: Repeat with O=C(N[C@@H](COc1ccc2[nH]c(=O)[nH]c2c1)c1ccccc1)c1cccn(Cc2ccc(F)c(F)c2)c1=O
Reply text: Y

###

experiment: Cellular viability qHTS for adrenocortical cancer (ACC) cell line NCI-H295R (AID 1963990); conditions: CellTiter-Glo ATP luminescence, 48 h; series mostly up to 46.1 µM; note: nearly all actives have a fitted effect of over 60% in size; note: potency is the fitted concentration of half-maximal effect
Records with an inconclusive call do not appear. The source made the active and inactive calls. Calls come from the whole dose curve; as a rule, active = well fitted cell-killing curve with a large enough effect; inconclusive = small, poorly fitted or top-dose-only effect; inactive = flat fitted curve, though single readings scatter.
Measurement name: Potency

In the examples that follow, each entry is paired with its recorded Potency.
Compound	Result
C[N+](C)(C)CCOC(=O)C(O)(c1ccccc1)c1ccccc1	inactive
C[C@H]1O[C@@H](O[C@H]2[C@@H](O)C[C@H](O[C@H]3[C@@H](O)C[C@H](O[C@H]4CC[C@@]5(C)[C@H](CC[C@@H]6[C@@H]5CC[C@]5(C)[C@@H](C7=CC(=O)OC7)CC[C@]65O)C4)O[C@@H]3C)O[C@@H]2C)C[C@H](O)[C@@H]1O	0.0651 µM (active)
O=C(O)CNC(=O)C1C(=O)N(C2CCCCC2)C(=O)N(C2CCCCC2)C1=O	inactive
CCc1cc2c(s1)-n1c(C)nnc1CN=C2c1ccccc1Cl	inactive

Inquiry: Quick one: Potency of O=c1c(C2CC(c3ccc(-c4ccc(Br)cc4)cc3)Cc3ccccc32)c(O)sc2ccccc12 (configuration not stated) ?
Reply text: 7.31 µM (active)

Inquiry: Repeat with CN1C(=S)CN=C(c2ccccc2)c2cc(Cl)ccc21
Reply text: inactive

Inquiry: Repeat with CN1CCN(C(=O)O[C@H]2c3nccnc3C(=O)N2c2ccc(Cl)cn2)CC1
Reply text: inactive

Inquiry: Repeat with CN1[C@H]2CC(O)C[C@H]1[C@H]1O[C@H]12 (some centres not stated)
Reply text: inactive

Inquiry: Repeat with c1ccc(N2CCNCC2)cc1
Reply text: inactive

Inquiry: Repeat with O=C(NCCCNc1nc(Nc2ccc(N3CCOCC3)cc2)ncc1C1CC1)C1CCC1
Reply text: inactive

Inquiry: Repeat with CCC(CC)(CNC(=O)CCCO)c1cccc(OC)c1
Reply text: inactive

Inquiry: Repeat with O=C(NC(=O)c1c(F)cccc1F)Nc1cc(Cl)c(OC(F)(F)C(F)C(F)(F)F)cc1Cl (configuration not stated)
Reply text: inactive

Inquiry: Repeat with C[C@]12CCC(=O)C=C1CC[C@@H]1[C@@H]2CC[C@]2(C)C(=O)CC[C@@H]12
Reply text: inactive

Inquiry: Repeat with c1ccc2nc(N3CCNCC3)ccc2c1
Reply text: inactive

Inquiry: Repeat with COc1ccc(C(=O)c2c(C)n(CCN3CCOCC3)c3cc(I)ccc23)cc1
Reply text: 20 µM (active)

Inquiry: Repeat with O=C1c2ccccc2C(=O)C1C(=O)C(c1ccccc1)c1ccccc1
Reply text: 23.1 µM (active)

Inquiry: Repeat with O=C(CBr)N1CC([N+](=O)[O-])([N+](=O)[O-])C1
Reply text: inactive

Inquiry: Repeat with CC(C)(N)Cc1ccccc1Cl
Reply text: inactive

The measured values listed here are drawn from PubChem BioAssay (NCATS).
